System: HEK293
Experiment: Cytotoxic Profiling of Annotated Libraries Using Quantitative High-Throughput Screening (AID 1296008); further: on the % scale 0 is the no-effect control and ±100 the full control effect; nearly all actives have a fitted effect of over 60% in size
Conditions: Five cell lines viability, CellTiter-Glo ATP luminescence, 48-72 h; hits give low values
Inconclusive results are not listed.
The following molecules are shown together with reported max response values.
MEASURED_ENDPOINT: max response (%)

INSERT INTO results (molecule, measured_endpoint, meas_value) VALUES
  ('COc1cc([C@H]2Oc3cc([C@H]4Oc5cc(O)cc(O)c5C(=O)[C@@H]4O)ccc3O[C@@H]2CO)ccc1O', 'max response', -17.6),
  ('Cc1cn([C@H]2C[C@H](F)[C@@H](CO)O2)c(=O)[nH]c1=O', 'max response', 0.5),
  ('O=C(O)C(Cc1cc(I)c(O)c(I)c1)c1ccccc1 (stereo not given)', 'max response', 1.09),
  ('CC(=O)Nc1ccc(CC(=O)O)cc1', 'max response', 0.0311),
  ('Nc1ccc(S(=O)(=O)Nc2cnc3ccccc3n2)cc1', 'max response', 1.95),
  ('CC(CNC1CCCCC1)OC(=O)c1ccccc1 (stereo not given)', 'max response', -47.9),
  ('O=S(=O)(O)c1ccc(O)cc1', 'max response', 2.28),
  ('NC(=O)C1(N2CCCCC2)CCN(CCCC(=O)c2ccc(F)cc2)CC1', 'max response', -19.7),
  ('CC(=O)OCC1=C(C(=O)O)N2C(=O)[C@@H](NC(=O)CSc3ccncc3)[C@H]2SC1', 'max response', 4.22),
  ('O=C1C(=O)c2ccccc2C(O)=C1C1CCC(c2ccc(Cl)cc2)CC1 (stereo not given)', 'max response', 0.597),
  ('COc1cc(C(=O)N2CCCCCCC2)cc(OC)c1OC', 'max response', 0.115),
  ('Cl/C(=C\n1cncn1)c1ccc(Cl)cc1Cl', 'max response', -2.88),
  ('Cc1cccc(C)c1NC(=O)CN1CCCC1', 'max response', 0.0979),
  ('CC(C)[C@@H]1CC[C@@H](C)CC1=O', 'max response', -11.3),
  ('CC(C)[N+](C)(C)CC(O)COc1cccc2ccccc12 (stereo not given)', 'max response', -10.5),
  ('Nc1nc(-c2ccccc2)c(Br)c(=O)[nH]1', 'max response', -28.5),
  ('N#CCC(=O)NN', 'max response', 3.14),
  ('Clc1cccc(C(c2ccc3nc[nH]c3c2)n2ccnc2)c1 (stereo not given)', 'max response', 1.25),
  ('Cc1c[nH]c2ccccc12', 'max response', 2.22),
  ('CN1CCC(OC(c2ccccc2)c2ccccc2)CC1', 'max response', -17.7),
  ('NCc1ccccc1Sc1ccccc1CO', 'max response', -7.72),
  ('CC(=O)Oc1ccc(C)cc1', 'max response', -1.12),
  ('CC(=C(CCOC(=O)C(C)C)SSC(CCOC(=O)C(C)C)=C(C)N(C=O)Cc1cnc(C)nc1N)N(C=O)Cc1cnc(C)nc1N', 'max response', -4.89),
  ('CC(=O)NCCCCCC(=O)O', 'max response', 1.53),
  ('Cc1ccc(-c2ncc(Cl)cc2-c2ccc(S(C)(=O)=O)cc2)cn1', 'max response', 4.1);

====

Tested on: DIV14
Experiment: qHTS profiling for inhibitors of Plasmodium falciparum proliferation (AID 504749); further: nearly all actives have a fitted effect of over 60% in size
Conditions: P. falciparum in erythrocytes, SYBR Green DNA, 72 h; series mostly up to 28.7 µM
Records with an inconclusive call do not appear. Activity calls are given as the source filed them. Calls follow the shape of the dose curve; as a rule, active = well fitted inhibition curve with a large enough effect; inconclusive = small, poorly fitted or top-dose-only effect; inactive = flat fitted curve, though single readings scatter.
Possible outcomes: active, inactive

INSERT INTO assay_data (record_smiles, class_label) VALUES
  ('CCOC(=O)Nc1ccc2c(c1)N(C(=O)CCN1CCOCC1)c1ccccc1S2', 'inactive'),
  ('CCCCCCCCCCCCCCCCO', 'inactive'),
  ('NC(=O)n1c(O)c(C(=O)c2cccs2)c2cc(Cl)ccc21', 'inactive'),
  ('CC(=O)Nc1ccc(S(=O)(=O)Nc2ccc([N+](=O)[O-])cc2)cc1', 'inactive'),
  ('Cl/C(=C\n1cncn1)c1ccc(Cl)cc1Cl', 'inactive'),
  ('CCOC(=O)c1ccc(N)cc1', 'inactive'),
  ('C/C=C/C=N/NC(=O)c1ccncc1', 'inactive'),
  ('CCOC(=O)c1c(N)sc2c1CCN(Cc1ccccc1)C2', 'active'),
  ('C#C[C@]1(O)CC[C@H]2[C@@H]3CCC4=CC(=O)CC[C@@H]4[C@H]3CC[C@@]21CC', 'inactive'),
  ('CCN(CC)CCNc1ccc(CO)c2sc3ccccc3c(=O)c12', 'active'),
  ('c1ccc(CC2=NCCN2)cc1', 'inactive'),
  ('O=c1[nH]c(=O)n([C@H]2C[C@H](O)[C@@H](CO)O2)cc1F', 'inactive');
